Source: patent US20160297889A1

Answer each item with its documented ADCC cytotoxic activity (51Cr release) on BT-474.
Molecular target: T1, CAPRIN-1 protein expressed on the membrane surface of human cancer cells (human, UniProt Q14444 2-709)
T1 sequence (looked up): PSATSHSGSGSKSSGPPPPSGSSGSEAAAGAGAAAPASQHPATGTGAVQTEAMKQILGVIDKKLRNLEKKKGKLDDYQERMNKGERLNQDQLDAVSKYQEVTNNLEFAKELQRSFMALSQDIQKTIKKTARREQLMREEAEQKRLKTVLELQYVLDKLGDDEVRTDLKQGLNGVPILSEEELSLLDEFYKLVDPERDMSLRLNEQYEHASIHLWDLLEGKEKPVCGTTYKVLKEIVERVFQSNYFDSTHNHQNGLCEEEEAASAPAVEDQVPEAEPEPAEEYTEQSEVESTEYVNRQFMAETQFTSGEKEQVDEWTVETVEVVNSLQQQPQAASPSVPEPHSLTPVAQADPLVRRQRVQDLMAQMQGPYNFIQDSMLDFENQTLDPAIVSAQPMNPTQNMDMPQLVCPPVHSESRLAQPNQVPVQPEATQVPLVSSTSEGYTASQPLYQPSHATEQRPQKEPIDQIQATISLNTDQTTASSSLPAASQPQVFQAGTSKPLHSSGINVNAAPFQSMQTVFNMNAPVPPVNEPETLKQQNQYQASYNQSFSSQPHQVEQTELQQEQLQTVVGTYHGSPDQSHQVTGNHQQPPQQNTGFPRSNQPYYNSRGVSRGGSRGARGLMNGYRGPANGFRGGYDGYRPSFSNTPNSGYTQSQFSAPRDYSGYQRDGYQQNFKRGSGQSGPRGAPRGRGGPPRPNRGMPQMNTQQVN
Experiment: cell-based or functional assay

Item under review: human-rabbit chimeric anti-CAPRIN-1 antibody (antibody, V domains shown) VH: QSLEESGGRLVTPGTPLTLTCTASGFSLSSHSLGWVRQAPGKGLEWIGDIRSGGSAYYANWAKGRFTISRTSTTVALKMTSLTTEDTATYFCTRTNGPSDLTNRLDLWGQGTLVTVSS VL: QVLTQTPSSVSAAVGGTVTINCQASQSLYNNENLAWFQQKPGQPPKRLIYGASTLASGVSSRFKGSGSGTQFTLTIGDVQCDDAAIYYCLGEFSCGSADCFAFGGGTEVVVK . Reported ADCC cytotoxic activity (51Cr release) on BT-474?
≥ 46%

Item under review: humanized antibody #3 (antibody, V domains shown) VH: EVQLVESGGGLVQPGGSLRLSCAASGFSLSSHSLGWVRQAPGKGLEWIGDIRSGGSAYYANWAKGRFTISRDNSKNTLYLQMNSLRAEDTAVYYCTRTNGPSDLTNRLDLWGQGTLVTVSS VL: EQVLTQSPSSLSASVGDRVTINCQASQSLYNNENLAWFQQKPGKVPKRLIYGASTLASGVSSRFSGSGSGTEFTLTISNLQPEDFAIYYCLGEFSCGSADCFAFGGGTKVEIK . Reported ADCC cytotoxic activity (51Cr release) on BT-474?
≥ 50%

Item under review: humanized antibody #1 (antibody, V domains shown) VH: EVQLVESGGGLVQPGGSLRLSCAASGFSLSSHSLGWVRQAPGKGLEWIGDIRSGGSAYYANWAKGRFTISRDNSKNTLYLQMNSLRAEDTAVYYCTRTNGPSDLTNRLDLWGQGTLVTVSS VL: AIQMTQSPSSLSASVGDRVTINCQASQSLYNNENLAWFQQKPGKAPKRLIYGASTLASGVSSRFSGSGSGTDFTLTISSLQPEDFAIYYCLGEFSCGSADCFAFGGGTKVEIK . Reported ADCC cytotoxic activity (51Cr release) on BT-474?
≥ 46%
